These data points were gathered from patent US20190202907A1.

- Assayed System: cyno ST2L (cyno)
- Test: affinity table; method not stated
# Lookup of reported koff keyed by entry
Write the value in s⁻¹ as a bare number.

The cases that follow already have their koff on record.
Binder	Measure	Reported
STLM231 (antibody, from another filing, V domains shown) VH: EVQLVQSGAEVKKPGATVKISCKVSAFNIKDDYMHWVQQAPGKGLEWMGRIDPAIGNTEYAEKFQGRVTITADTSTDTAYMELSSLRSEDTAVYYCATGDFYAMAYWGQGTLVTVSS VL: DIQMTQSPSSLSASVGDRVTITCITNTDIDDVIHWYQQKPGKVPKLLIYEGNTLRPGVPSRFSGSGSGTDFTLTISSLQPEDVATYYCLQSDNMLTFGQGTKLEIK	koff	0.0143
STLM220 (antibody, from another filing, V domains shown) VH: EVQLLESGGGLVQPGGSLRLSCAASGFTFSFYDMFWVRQAPGKGLEWVSDIRGEGGGTAYADSVKGRFTISRDNSKNTLYLQMNSLRAEDTAVYYCARDPWSTEGSFFVLDYWGQGTLVTVSS VL: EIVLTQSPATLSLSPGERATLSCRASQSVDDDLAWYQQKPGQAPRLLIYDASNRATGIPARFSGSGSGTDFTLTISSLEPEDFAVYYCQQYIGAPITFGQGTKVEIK	koff	0.00014
STLM108 (antibody, from another filing, V domains shown) VH: EVQLLESGGGLVQPGGSLRLSCAASGFTFSIYDMIWVRQAPGKGLEWVSTIKGEGGGTYYADSVKGRFTISRDNSKNTLYLQMNSLRAEDTAVYYCARDPWSTEGSFFVLDYWGQGTLVTVSS VL: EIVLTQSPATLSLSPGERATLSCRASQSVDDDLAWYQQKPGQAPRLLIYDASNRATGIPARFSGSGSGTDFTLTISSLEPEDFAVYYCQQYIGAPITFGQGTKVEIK	koff	0.000598

Moving on to another binder below.
Answer with the recorded koff of STLM215 (antibody, from another filing, V domains shown) VH: EVQLLESGGGLVQPGGSLRLSCAASGFTFSSYDMFWVRQAPGKGLEWVSAIAGEGGRTYYADSVKGRFTISRDNSKNTLYLQMNSLRAEDTAVYYCARDPWSTEGSFFVLDYWGQGTLVTVSS VL: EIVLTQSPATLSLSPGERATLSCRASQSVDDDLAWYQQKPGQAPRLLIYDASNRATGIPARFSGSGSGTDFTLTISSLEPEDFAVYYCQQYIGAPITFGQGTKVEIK only. 0.000369
